Values from patent US20030068675

target: ZFP SBS#339 (synthetic); test: EMSA; conditions: tags: MBP fusion
Sequence (chain, as listed by the source): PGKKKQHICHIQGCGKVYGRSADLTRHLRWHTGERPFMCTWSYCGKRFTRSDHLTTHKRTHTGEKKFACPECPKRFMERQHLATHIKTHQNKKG
measurement-label: pKd
// scale note: pKd = -log10(conc_M); give the bare number

Query: Entry TGCGGGGCAA (dsDNA) DNA 1: TGCGGGGCAA DNA 2: TTGCCCCGCA has what pKd?
Result: 7.19
